tgt: EGFR L858R/T790M/C797S (Homo sapiens, UniProt P00533, C797S/L858R/T790M)
Sequence (P00533 25-1210 T790M/C797S/L858R): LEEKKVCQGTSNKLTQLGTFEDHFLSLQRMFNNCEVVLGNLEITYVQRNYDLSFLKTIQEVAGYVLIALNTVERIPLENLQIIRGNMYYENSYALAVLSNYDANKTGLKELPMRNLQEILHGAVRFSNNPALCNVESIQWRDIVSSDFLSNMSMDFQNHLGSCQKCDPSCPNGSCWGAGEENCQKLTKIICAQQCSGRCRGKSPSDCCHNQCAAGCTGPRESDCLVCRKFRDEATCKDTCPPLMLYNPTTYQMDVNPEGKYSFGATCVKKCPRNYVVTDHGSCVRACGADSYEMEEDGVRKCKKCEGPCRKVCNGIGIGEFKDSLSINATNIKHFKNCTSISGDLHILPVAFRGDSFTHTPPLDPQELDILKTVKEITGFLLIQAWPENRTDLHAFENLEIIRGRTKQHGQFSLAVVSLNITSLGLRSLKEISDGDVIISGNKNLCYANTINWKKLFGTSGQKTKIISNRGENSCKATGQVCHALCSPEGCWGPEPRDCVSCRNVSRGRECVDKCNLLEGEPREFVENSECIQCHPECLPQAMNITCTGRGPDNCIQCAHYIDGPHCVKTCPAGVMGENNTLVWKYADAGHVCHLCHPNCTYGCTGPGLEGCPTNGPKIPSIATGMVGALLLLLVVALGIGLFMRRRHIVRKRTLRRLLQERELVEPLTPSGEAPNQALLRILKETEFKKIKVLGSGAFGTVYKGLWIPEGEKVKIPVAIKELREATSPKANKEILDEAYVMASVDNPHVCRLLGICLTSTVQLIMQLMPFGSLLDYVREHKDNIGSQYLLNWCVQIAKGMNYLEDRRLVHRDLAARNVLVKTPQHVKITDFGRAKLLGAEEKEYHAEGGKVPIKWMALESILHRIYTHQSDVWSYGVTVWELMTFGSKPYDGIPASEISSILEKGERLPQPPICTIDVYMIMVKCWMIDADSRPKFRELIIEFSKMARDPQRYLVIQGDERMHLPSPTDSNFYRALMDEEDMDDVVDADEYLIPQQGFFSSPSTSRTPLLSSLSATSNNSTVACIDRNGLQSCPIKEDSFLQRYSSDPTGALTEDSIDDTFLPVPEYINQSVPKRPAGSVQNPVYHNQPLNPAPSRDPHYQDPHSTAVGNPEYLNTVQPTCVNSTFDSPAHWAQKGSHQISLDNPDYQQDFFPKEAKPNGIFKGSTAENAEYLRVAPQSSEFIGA
protocol-description: Biochemical EGFR kinase inhibition assay (Lance Ultra TR-FRET), triple mutant L858R/T790M/C797S
reported-conditions: Km ATP; read-out: IC50 L858R/T790M/C797S (nM), Km ATP
quantity-measured: IC50 (nM)

Solved entries:
{"columns": ["compound", "tgt", "unit-label", "IC50"],
 "data": [
  ["C[C@]1(O)CCCN(c2cc(Nc3ccnc(-c4cnn(S(=O)(=O)C5CC5)c4)n3)ncc2C#Cc2cnn(CCF)c2)C1", "EGFR L858R/T790M/C797S (Homo sapiens, UniProt P00533, C797S/L858R/T790M)", "nM", 0.2],
  ["O=S(=O)(C1CC1)n1cc(-c2nccc(Nc3cc(N[C@H]4CC[C@@H](O)CC4)c(C#CC4C[C@@H]5CC[C@@H]4O5)cn3)n2)cn1 (some centres unmarked)", "EGFR L858R/T790M/C797S (Homo sapiens, UniProt P00533, C797S/L858R/T790M)", "nM", 0.2],
  ["O=S(=O)(C1CC1)n1cc(-c2nccc(Nc3cc(NC4CCC(CO)CC4)c(C#CC4CCCO4)cn3)n2)cn1 (centres unmarked)", "EGFR L858R/T790M/C797S (Homo sapiens, UniProt P00533, C797S/L858R/T790M)", "nM", 0.3]
]}

a: CC1(CO)CCN(c2cc(Nc3ccnc(-c4cnn(S(=O)(=O)C5CC5)c4)n3)ncc2C#CC2(O)CCCOC2)CC1 (centres unmarked)
b: C[C@]1(O)CC[C@@H](Nc2cc(Nc3ccnc(-c4cnn(S(=O)(=O)C5CC5)c4)n3)ncc2C#Cc2cnn(CC(F)(F)F)c2)CC1
c: O=S(=O)(C1CC1)n1cc(-c2nccc(Nc3cc(N4CCCC(O)C4)c(C#Cc4cnn(CC(F)(F)F)c4)cn3)n2)cn1 (centres unmarked)
Order the items by recorded IC50; the first position goes to the largest value. Rank the items, then write their labels in that order.
b, c, a

P: O=S(=O)(C1CC1)N1CCC(C#Cc2cnc(Nc3ccnc(-c4cnn(S(=O)(=O)C5CC5)c4)n3)cc2N[C@H]2CC[C@@H](O)CC2)CC1
Q: CC1(CO)CCN(c2cc(Nc3ccnc(-c4cnn(S(=O)(=O)C5CC5)c4)n3)ncc2C#CC2COC2)CC1
Which entry shows the lesser value of IC50 here, P or Q ? Indicate which entry you chose by stating its label.
Q

---

tgt: EGFR L858R/T790M/C797S (Homo sapiens, UniProt P00533, C797S/L858R/T790M)
protocol-description: Biochemical EGFR kinase inhibition assay (Lance Ultra TR-FRET), triple mutant L858R/T790M/C797S
reported-conditions: IC50 L858R/T790M/C797S (nM), 100 μM ATP
quantity-measured: IC50 (nM)

Solved entries:
{"columns": ["chemical-structure", "quantity-measured", "unit-label", "observed-value"],
 "data": [
  ["Cn1cc(C#Cc2cnc(Nc3ccnc(-c4cnn(S(=O)(=O)C5CC5)c4)n3)cc2N[C@@H]2CCC[C@H](O)C2)cn1", "IC50", "nM", 2.3],
  ["CC1(CO)CCN(c2cc(Nc3ccnc(-c4cnn(CC(F)F)c4)n3)ncc2C#Cc2cnn(C(F)(F)F)c2)CC1", "IC50", "nM", 3.1]
]}

P: O=S(=O)(C1CC1)n1cc(-c2nccc(Nc3cc(N[C@H]4CC[C@@H](CO)CC4)c(C#Cc4cnn(C(F)(F)F)c4)cn3)n2)cn1
Q: Cn1cc(C#Cc2cnc(Nc3ccnc(-c4cnn(S(=O)(=O)C5CC5)c4)n3)cc2N2CCC3(CCNCC3)C2)cn1
R: O=S(=O)(C1CC1)n1cc(-c2nccc(Nc3cc(N4CCC5(CCO5)CC4)c(C#Cc4ncc(CN5CCOCC5)cn4)cn3)n2)cn1
S: Cn1cc(C#Cc2cnc(Nc3ccnc(-c4cnn(S(=O)(=O)C5CC5)c4)n3)cc2N2CCC(C(F)(F)F)CC2)cn1
Order the items by recorded IC50; the first position goes to the largest value. Rank the items, then write their labels in that order.
S, Q, P, R

The measured values listed here are drawn from patent US11981658B2.
